Entries and their inhibition
Test system: Methionine sulfoxide reductase A (Bos taurus)
Assay: bovine MsrA enzyme inhibitors, primary screen, biochemical, absorbance, HTS (AID 651718);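 note: 0% = vehicle wells with enzyme and 100% = reference inhibitor wells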
Conditions: purified bovine MsrA, absorbance read-out; at 15.5 µM; active compounds read high
Hit rate of the full screen: of about 360,000 compounds, about 2,700 (0.75%) were called active. What follows is part of a selection rich in actives, with near analogues and random picks from the rest.

See these solved cases before continuing.
| compound | result |
| --- | --- |
| CC(=O)Nc1ccc(S(=O)(=O)N(C)c2ccc(OCC(=O)OCC(=O)N3CCCCC3)cc2)cc1 | -0.39% (inactive) |
| Nc1nc2c(ncn2[C@@H]2O[C@H](C(=O)N[C@H](Cc3ccccc3)C(=O)NCC3CCCCC3)[C@@H](O)[C@H]2O)c(=O)[nH]1 | 0.66% (inactive) |
| NC(=S)NN=Cc1ccc(OC(=O)COc2cc(Cl)c(Cl)cc2Cl)cn1 | 4.84% (active) |

If you can, please state the reported inhibition value of CN1C(=O)CN2CCc3ccccc3C2c2cc(Cl)ccc21 (centres undefined) .
1.04% (inactive)

* * *

System: Methionine sulfoxide reductase A (Bos taurus)
Assay: bovine MsrA enzyme inhibitors, primary screen, biochemical, absorbance, HTS (AID 651718);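 note: 0% = vehicle wells with enzyme and 100% = reference inhibitor wells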
Settings: purified bovine MsrA, absorbance read-out; at 15.5 µM
Among all 360,000 compounds or so, about 2,700 (0.75%) were called active. No stated cut-off is given here; in the data, active means inhibition above about 4.5%; inactive means the rest. The sample holds actives, similar compounds and a random draw of the others, so the mix is not that of the screen.
Give your call using only these classes: active, inactive

Observe how each entry below is paired with its result.
| molecule | category |
| --- | --- |
| O=C1/C(=C\Nc2ccccc2)CCN1c1ncccn1 | active |
| COc1ccccc1Oc1ccc(N/C=C2/CCCC2=O)cc1 | inactive |
| COc1ccc(C2/C(=C(/O)c3ccccc3)C(=O)C(=O)N2C)c(OC)c1 (stereo unspecified) | active |
| COC(=O)Nc1nc2ccc(C(=O)C3CC3)cc2[nH]1 | inactive |

Outcome? "COc1ccc(S(=O)(=O)Nc2ccc3c(c2)C(=O)N([C@H](C)CO)C[C@H](C)[C@@H](CN(C)C)OCCCC[C@H](C)O3)cc1"
inactive

Also "O=S1(=O)N=C(N(CCO)/N=C/c2ccccc2F)c2ccccc21" , if possible.
active

* * *

System: Methionine sulfoxide reductase A (Bos taurus)
Experiment: bovine MsrA enzyme inhibitors, primary screen, biochemical, absorbance, HTS (AID 651718);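 note: 0% = vehicle wells with enzyme and 100% = reference inhibitor wells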
Settings: purified bovine MsrA, absorbance read-out; at 15.5 µM
In all, about 360,000 compounds went through this assay and about 2,700 (0.75%) were called active. No stated cut-off is given here; in the data, active means inhibition above about 4.5%; inactive means the rest. This is one part of a sample in which actives are shown more often than they occur.
Give your call using only these classes: Yes = active, No = inactive

Observe how each entry below is paired with its result.
| molecule | category |
| --- | --- |
| CCN(c1ccccc1)S(=O)(=O)c1ccc2[nH]c(=O)[nH]c2c1 | No |
| Cc1cc(C)nc(N2C(=O)CC(Cc3ccccc3)C2=O)n1 (stereo unspecified) | No |
| CC(=O)Nc1ccc2nc(NC(=O)CS(=O)(=O)c3ccc(F)cc3)sc2c1 | No |
| CCCCCCc1cc2cc(-c3nnc(-c4cccc(OC)c4)o3)c(=O)oc2cc1O | No |
| COc1cccc2[nH]c(C(=O)NCCc3ccccc3)cc12 | No |
| CCc1nnc(NS(=O)(=O)c2ccc(NC(=S)NC(=O)/C=C/c3cccs3)cc2)s1 | Yes |
| COc1ccccc1CC(=O)Nc1ccc(S(=O)(=O)N2CCCC2)cc1 | No |
| COC(=O)C1=C(C)N(Cc2ccccc2C(F)(F)F)C(=NCC2CC2)NC1c1cccc(Cl)c1 (stereo unspecified) | No |

Outcome? "COc1cccc(-c2nn(C)c3sc(C(=O)N4CCN(c5ccccc5)CC4)cc23)c1"
Yes

Also COc1ccc(-c2ccccc2C2Cc3nnccc3CN2C(=O)Nc2ccccc2)cc1 (stereo unspecified) , if possible.
No

Also "Cc1ccc(S(=O)(=O)Oc2ccc(/C=N/NC(=O)c3c(Cl)cnn3C)cc2)cc1" , if possible.
No

Also "COc1ccc(CCNC(=S)NC(=O)/C=C/c2ccc(C)cc2)cc1OC" , if possible.
No

Also "O=C(CCC(=O)N/N=C/c1ccc(Br)o1)N/N=C/c1ccc(Br)o1" , if possible.
No

Also "O=C1[C@@H](c2ccccc2)[C@@H](c2ccccc2)N1c1ccccc1" , if possible.
No

Also Cc1ccc(NC(=O)CC2S/C(=N/N=C3\CCCc4ccccc43)NC2=O)cc1 (stereo unspecified) , if possible.
No

Also "CCc1nnc(NS(=O)(=O)c2ccc(NC(=O)c3cccc(OC(F)(F)C(F)F)c3)cc2)s1" , if possible.
No

Also "CN(c1ccccc1)S(=O)(=O)c1ccc2[nH]c(=O)[nH]c2c1" , if possible.
Yes

Also "O=C1CN(C(=O)COc2c(Cl)cccc2Cl)c2ccccc2N1" , if possible.
No

Also "COC(=O)Cn1cnc2scc(-c3ccc(C)c(C)c3)c2c1=O" , if possible.
Yes

Also "CCOc1ccccc1C(=O)N1CCC[C@@H]1C(=O)N1CCC[C@H]1C(=O)NCc1ccccc1" , if possible.
No

Also Cc1cc(C)c(S(=O)(=O)NCC(c2ccc3c(c2)OCO3)N2CCOCC2)c(C)c1 (stereo unspecified) , if possible.
No

Also "Cc1ccccc1C(=O)N[C@H](C(=O)N1CCC[C@H]1C(=O)NCc1ccccc1)C(C)C" , if possible.
No

Also "O=C(N/N=C/c1ccc(Br)o1)c1cncc(Br)c1" , if possible.
Yes

Also "Cc1c(C)n2c(SCC(=O)N3CCCC3)nnc2[nH]c1=O" , if possible.
No

Also CC(C)OP(=O)(OC(C)C)C(Nc1ccccc1)c1cccc([N+](=O)[O-])c1 (stereo unspecified) , if possible.
No

Also "CCCCCCCCN1C(=O)[C@@H](CC(=O)NCc2ccccc2)C[C@@]2(C(=O)OC)C1=C[C@H](C(C)(C)C)O[C@@H]2C" , if possible.
No

Also "COc1ccc(-c2ccc(Nc3ccc(S(=O)(=O)N4CCCC4)cc3)nn2)cc1OC" , if possible.
Yes

Also "CC(=O)c1sc2nc(SCC(=O)N3CCCCC3)[nH]c(=O)c2c1C" , if possible.
Yes

Also CCOC(=O)C(C)n1cnc2scc(-c3ccc(C)c(C)c3)c2c1=O (stereo unspecified) , if possible.
Yes

Also "COc1ccc(S(=O)(=O)N2CCCCCC2)cc1NC(=O)Cc1ccc(OC)c(OC)c1" , if possible.
No

Also "CCOc1ccccc1/C=N/NC(=O)CNC(=O)COc1ccccc1" , if possible.
No

Also "COc1cccc(-c2ccc(SCC(=O)N3CCN(c4ccccc4)CC3)nn2)c1" , if possible.
No

Also "Nc1ccn([C@@H]2O[C@H](C(=O)N[C@H]3CCCCNC3=O)[C@@H](O)[C@H]2O)c(=O)n1" , if possible.
No

Also "COc1cc2cc(C(=O)N/N=C/c3cccc(OC)c3OC)[nH]c2cc1OC" , if possible.
Yes

Also "COC(=O)[C@]12C[C@H](CC(=O)N3CCN(C(=O)C4CC4)CC3)C(=O)N(Cc3ccc4c(c3)OCO4)C1=C[C@H](C(C)(C)C)O[C@@H]2C" , if possible.
No

Also "COc1ccc2[nH]c(C(=O)N/N=C/c3cc(OC)c(OC)c(OC)c3)cc2c1" , if possible.
Yes
